- assay-details: in vitro
- condition-details: rat, gh3-tre-luc cells, AC50 (uM) modified / 1000
property-name: CC50 at 24 h

// solved cases for CC50 at 24 h follow
compound	CC50 at 24 h
C#C[C@]1(O)CC[C@H]2[C@@H]3CCC4=CC(=O)CC[C@@H]4[C@H]3CC[C@@]21C	59.2 µM
CCCCC(=O)N(Cc1ccc(-c2ccccc2-c2nnn[nH]2)cc1)[C@H](C(=O)O)C(C)C	> 50 µM
CC(=O)c1ccc2c(c1)N(CCCN1CCC(CCO)CC1)c1ccccc1S2	10.7 µM

Query: Fill in reported CC50 at 24 h for this entry: CC(C)NCC(O)c1ccc2ccccc2c1 (stereo not drawn)
Response: > 50 µM

Query: Fill in reported CC50 at 24 h for this entry: CCCC(=O)OC[C@@H](OC(=O)CCC)[C@@H](OC(=O)CCC)[C@H](Cn1c2nc(=O)[nH]c(=O)c-2nc2cc(C)c(C)cc21)OC(=O)CCC [Riboflavin tetrabutyrate]
Response: > 50 µM

Query: Fill in reported CC50 at 24 h for this entry: C=CCN1CCCC1CNC(=O)c1cc(S(N)(=O)=O)cc(OC)c1OC (stereo not drawn) [Veralipride]
Response: > 50 µM

Query: Fill in reported CC50 at 24 h for this entry: `COc1cc2nc(N3CCN(C(=O)c4ccco4)CC3)nc(N)c2cc1OC`
Response: 8.15 µM

Query: Fill in reported CC50 at 24 h for this entry: O=C(O)Cc1ccccc1Nc1c(Cl)cccc1Cl [Diclofenac sodium]
Response: > 90 µM

Query: Fill in reported CC50 at 24 h for this entry: `N[C@@H](Cc1ccccc1)C(=O)O`
Response: > 50 µM

Query: Fill in reported CC50 at 24 h for this entry: `CC(C)(C)c1ccc(CCOc2ncnc3ccccc23)cc1`
Response: > 90 µM

Query: Fill in reported CC50 at 24 h for this entry: `C[C@H]1O[C@@H](O[C@H]2[C@@H](O)C[C@H](O[C@H]3[C@@H](O)C[C@H](O[C@H]4CC[C@@]5(C)[C@H](CC[C@@H]6[C@@H]5C[C@@H](O)[C@]5(C)[C@@H](C7=CC(=O)OC7)CC[C@]65O)C4)O[C@@H]3C)O[C@@H]2C)C[C@H](O)[C@@H]1O`
Response: > 90 µM

Query: Fill in reported CC50 at 24 h for this entry: `CCCCCCCC/C=C\CCCCCCCC(=O)OCCCC`
Response: > 20 µM

Query: Fill in reported CC50 at 24 h for this entry: `Clc1cc(Cl)c(OCC#CI)cc1Cl`
Response: 11.9 µM
